Observed IC50 for Neuraminidase (Influenza A virus, UniProt B4URF0), reported per entry below.
Express it in µM; write the number only.

INSERT INTO measurements (compound, targetentity, quantitymeasured, resultnumber) VALUES
  ('O=C(O)[C@@H]1CSC(c2ccccc2)N1C(=O)CCl (mixture of isomers)', 'Neuraminidase (Influenza A virus, UniProt B4URF0)', 'IC50', 7.53),
  ('N#Cc1ccc(C2N[C@H](C(=O)O)CS2)cc1 (mixture of isomers)', 'Neuraminidase (Influenza A virus, UniProt B4URF0)', 'IC50', 23.4);

Requested read-out IC50, target or system Neuraminidase (Influenza A virus, UniProt B4URF0), entry NCC(=O)N1C(c2ccccc2[N+](=O)[O-])SC[C@H]1C(=O)O (mixture of isomers) 1.02

Form field - read-out: IC50; system: Neuraminidase (Influenza A virus, UniProt B4URF0); submitted item: O=C(O)[C@@H]1CSC(c2ccccc2[N+](=O)[O-])N1C(=O)Cc1ccccc1 (mixture of isomers) 1.87
